# assayedSystem: Mitogen-activated protein kinase 10 (Mus musculus)
# assayDetails: JNK3 AlphaScreen Assay (AID 530);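 further: kinase came from lysate of stimulated human HepG2 cells; signal reports phosphorylation of biotinylated GST-cJun 1-79 at Ser73 with 10 µM ATP; on the % scale 0 is the no-effect control and ±100 the full control effect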
# conditionSummary: JNK3 lysate, c-Jun phosphorylation; series mostly up to 11.4 µM
Inconclusive results are not listed. Calls of active or inactive are those of the source. The call rests on the fitted dose curve; in most records, active means well fitted curve in either direction with a large enough effect (not every such curve was filed as active); inconclusive means small, poorly fitted or top-dose-only effect, or another doubt; inactive means flat fitted curve, though single readings scatter.
measuredParameter: outcome

[
  {
    "molecule": "O=C(O)c1cc(-c2ccncc2)nc2ccccc12",
    "assayedSystem": "Mitogen-activated protein kinase 10 (Mus musculus)",
    "outcome": "inactive"
  },
  {
    "molecule": "Cc1c(N2CCCC2)cc2c(c1NC(=O)c1ccccc1Cl)C(C)(C)CC2(C)C",
    "assayedSystem": "Mitogen-activated protein kinase 10 (Mus musculus)",
    "outcome": "inactive"
  },
  {
    "molecule": "OC[C@@H]1O[C@@H](O)[C@H](N=Cc2ccc3c(c2)OCO3)[C@@H](O)[C@@H]1O",
    "assayedSystem": "Mitogen-activated protein kinase 10 (Mus musculus)",
    "outcome": "inactive"
  },
  {
    "molecule": "Nc1cccc2cc(S(=O)(=O)Nc3ccc(C(=O)O)cc3)ccc12",
    "assayedSystem": "Mitogen-activated protein kinase 10 (Mus musculus)",
    "outcome": "inactive"
  },
  {
    "molecule": "CN1CCN(Cc2nc3cccc4c3c([n+]2[O-])-c2ccccc2-4)CC1",
    "assayedSystem": "Mitogen-activated protein kinase 10 (Mus musculus)",
    "outcome": "inactive"
  },
  {
    "molecule": "CN(C)CCCn1c2ccccc2c2cnccc21",
    "assayedSystem": "Mitogen-activated protein kinase 10 (Mus musculus)",
    "outcome": "inactive"
  }
]

API: the following record is the query input.
Request: For the molecule O=C1/C(=C/c2cccnc2)SC(=S)N1Cc1ccco1 , what outcome is on record?
Response: inactive

----------
# assayDetails: NFAT Signaling Pathway (AID 444);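 further: carbachol stimulus at about its EC50 of 1 µM final; on the % scale 0 is the no-effect control and ±100 the full control effect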
# conditionSummary: Jurkat NFAT-bla M1, carbachol, beta-lactamase ratio, 5 h; at 7.69 µM (top of the series) unless noted
# Description: NCGC Assay Overview: The nuclear factor of activated T cells (NFAT) family of transcription factors has been found primarily in most immune system cells and some other non-immune cells. NFAT plays the immunomodulatory role, primarily in T-cell activation and differentiation. […] NCGC Assay Protocol Summary: The cells were prepared in RPMI 1640 medium containing 0.1% dialyzed FBS and 25 mM HEPES at 1.6 x 10^6cell/ml. […] The %Activity was determined from the ratio of 460nm/530nm. […]
Inconclusive results are not listed. Calls of active or inactive are those of the source. Calls follow the shape of the dose curve; as a rule, active = well fitted curve in either direction with a large enough effect (not every such curve was filed as active); inconclusive = small, poorly fitted or top-dose-only effect, or another doubt; inactive = flat fitted curve, though single readings scatter.
measuredParameter: activity change, negative = inhibition

Example entries and their recorded answers appear below.
[
  {
    "chemicalSmiles": "O=C(O)c1ccncc1.O=C(O)c1ccncc1.[Cl][Pt]([Cl])([Cl])[Cl]",
    "activity change, negative = inhibition": "-19.9% (inactive)"
  },
  {
    "chemicalSmiles": "Cn1c(=O)c2[nH]c(CCC(=O)O)nc2n(C)c1=O",
    "activity change, negative = inhibition": "10.1% (inactive)"
  },
  {
    "chemicalSmiles": "[N-]=[N+]=Nc1ccc(C(=O)CSC[C@@H](NC(=O)CC[C@@H](N)C(=O)O)C(=O)NCC(=O)O)cc1",
    "activity change, negative = inhibition": "-3.2% [at 38 µM] (inactive)"
  },
  {
    "chemicalSmiles": "CC(C)(C)OC(=O)[C@H]([C@@H]1N[C@@H](C(=O)O)C(C)(C)S1)N1C(=O)c2ccccc2C1=O",
    "activity change, negative = inhibition": "-5.29% (inactive)"
  },
  {
    "chemicalSmiles": "O=C1CC[C@](CCc2nc3ccccc3[nH]2)(c2ccccc2)C(=O)N1",
    "activity change, negative = inhibition": "7.74% (inactive)"
  },
  {
    "chemicalSmiles": "O=C(O)C(F)(F)C(F)(F)C(F)(F)C(F)(F)C(=O)O",
    "activity change, negative = inhibition": "6.75% (inactive)"
  },
  {
    "chemicalSmiles": "C[C@]12CC[C@H]3c4ccc(O)cc4CC[C@@H]3[C@H]1CC[C@@H]2OC(=O)CCc1ccccc1",
    "activity change, negative = inhibition": "-14.3% (inactive)"
  },
  {
    "chemicalSmiles": "O=C(O)CCC(=O)N1CCC[C@H]1C(=O)O",
    "activity change, negative = inhibition": "7.11% [at 38 µM] (inactive)"
  }
]

API: the following record is the query input.
Request: For the compound Cc1ccc(N=Nc2c(O)c(S(=O)(=O)O)cc3cc(S(=O)(=O)O)ccc23)c(C)c1 , what activity change, negative = inhibition is on record?
Response: 10.1% (inactive)

----------
# assayDetails: qHTS assay for small molecule antagonists of peroxisome proliferator-activated receptor delta signaling (AID 588535);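 further: cells co-treated with a PPAR-delta agonist as stimulator during compound exposure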
# conditionSummary: HEK293T PPARd-UAS-bla, beta-lactamase FRET ratio, 18 h; 460 nm channel
Results filed as inconclusive are left out.
measuredParameter: max response (%)
Kindly provide the numeric value in % only, without the unit symbol.

Example entries and their recorded answers appear below.
[
  {
    "chemicalSmiles": "O=CC(=O)c1ccccc1",
    "max response / %": 7.18
  },
  {
    "chemicalSmiles": "C/C(Cl)=C/CCl",
    "max response / %": 5.39
  },
  {
    "chemicalSmiles": "Cc1c(N)cccc1Cl",
    "max response / %": -10
  },
  {
    "chemicalSmiles": "Oc1c(Cl)cc(Cl)c(Cl)c1Cl",
    "max response / %": 22.5
  },
  {
    "chemicalSmiles": "Cc1c(C(=O)O)c(O)cc2c1C(=O)c1c(O)c([C@H]3O[C@H](CO)[C@@H](O)[C@H](O)[C@H]3O)c(O)c(O)c1C2=O",
    "max response / %": 28.9
  }
]

Request: For the molecule Nc1ccc2c(c1)C(=O)c1ccccc1C2=O , what max response is on record?
Response: -6.52

Request: For the molecule Nc1ccc(N)c(Cl)c1 , what max response is on record?
Response: -6.58

----------
# assayDetails: Cell Viability - LYMP2-023 (AID 975);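 further: cells exposed to compound for 24 hours at 37 °C; nearly all actives have a fitted effect of over 55% in size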
# conditionSummary: LYMP2-023 lymphoblastoid cell viability; series mostly up to 92.2 µM
Inconclusive results are not listed. Active and inactive are the calls of the source. Calls come from the whole dose curve; as a rule, active = well fitted cell-killing curve with a large enough effect; inconclusive = small, poorly fitted or top-dose-only effect; inactive = flat fitted curve, though single readings scatter.
# valid calls are active, inactive; nothing else

Known results for molecules:
[
  {
    "molecule": "Cc1c(N)cccc1Cl",
    "className": "inactive"
  },
  {
    "molecule": "O=[N+]([O-])c1ccccc1Nc1ccccc1",
    "className": "inactive"
  },
  {
    "molecule": "Brc1cc(Oc2cc(Br)c(Br)c(Br)c2Br)c(Br)c(Br)c1Br",
    "className": "inactive"
  }
]

Request: What call does the record list for CC(C)COC(=O)COc1cc(Cl)c(Cl)cc1Cl ?
Response: inactive

Request: What call does the record list for c1c[nH]cn1 ?
Response: inactive

Request: What call does the record list for O=[N+]([O-])c1ccc(F)cc1F ?
Response: inactive

Request: What call does the record list for COc1ccc(C(=O)Nc2ccccc2)cc1[N+](=O)[O-] ?
Response: inactive

Request: What call does the record list for C=C1CC[C@H](O)C/C1=C/C=C1\CCC[C@]2(C)[C@@H]([C@H](C)CCCC(C)C)CC[C@@H]12 ?
Response: active

Request: What call does the record list for CCCC(=O)OC(=O)CCC ?
Response: inactive

----------
# assayedSystem: Cytochrome P450 2C9 (Homo sapiens) (UniProt P11712)
# Sequence (P11712 whole entry, looked up): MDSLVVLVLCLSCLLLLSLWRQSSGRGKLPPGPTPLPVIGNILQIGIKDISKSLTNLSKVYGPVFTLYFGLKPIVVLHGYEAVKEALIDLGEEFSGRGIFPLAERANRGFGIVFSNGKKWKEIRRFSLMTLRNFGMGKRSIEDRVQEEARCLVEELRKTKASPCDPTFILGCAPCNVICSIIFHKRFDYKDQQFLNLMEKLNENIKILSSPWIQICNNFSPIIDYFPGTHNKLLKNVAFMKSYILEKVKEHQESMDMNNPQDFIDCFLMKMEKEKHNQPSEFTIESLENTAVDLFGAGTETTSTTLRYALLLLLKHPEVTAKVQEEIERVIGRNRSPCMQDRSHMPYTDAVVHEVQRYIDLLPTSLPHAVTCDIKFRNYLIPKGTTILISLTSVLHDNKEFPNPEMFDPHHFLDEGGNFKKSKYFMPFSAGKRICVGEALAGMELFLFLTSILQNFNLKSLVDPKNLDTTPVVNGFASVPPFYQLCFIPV
# assayDetails: qHTS Assay for Inhibitors and Substrates of Cytochrome P450 2C9 (AID 883); further: nearly all actives have a fitted effect of over 60% in size
# conditionSummary: recombinant CYP2C9, luciferin-H luminescence, 60 min; series mostly up to 11.4 µM
Inconclusive results are not listed. Activity calls are given as the source filed them. Calls come from the whole dose curve; as a rule, active = well fitted inhibition curve with a large enough effect; inconclusive = small, poorly fitted or top-dose-only effect; inactive = no such curve, though single readings can be large or run the other way.
# valid calls are active, inactive; nothing else

Known results for molecules:
[
  {
    "chemicalSmiles": "O=C1/C(=C/c2ccccc2)[C@@H](NC2CCCCC2)c2ccccc21",
    "assayedSystem": "Cytochrome P450 2C9 (Homo sapiens) (UniProt P11712)",
    "className": "active"
  },
  {
    "chemicalSmiles": "COc1ccc(Cc2ccccc2C(=O)O)c2ccccc12",
    "assayedSystem": "Cytochrome P450 2C9 (Homo sapiens) (UniProt P11712)",
    "className": "active"
  }
]

Request: What call does the record list for Oc1ccc(Cc2cc(Cl)cc(Cl)c2O)cc1Cl ?
Response: active

Request: What call does the record list for COc1ccc([C@@H](Nc2ncccn2)c2cc3c(cc2O)OCO3)cc1 ?
Response: active

Request: What call does the record list for N=c1ccn2c(n1)O[C@@H]1[C@@H](O)[C@H](CO)O[C@H]12 ?
Response: inactive

Request: What call does the record list for O=C(O)CSC1=NCCN1 ?
Response: inactive

Request: What call does the record list for CC(C)[C@@H]1OC(=O)C=CC=CC=CC=CC=CC[C@@H](O)[C@H](C)[C@@H](O)C[C@H](O)C[C@H](O)C[C@H](O)C[C@H](O)C[C@H](O)C[C@H](O)C=C[C@@H]1C ?
Response: inactive
